Target: UniProtKB P07900
Reported Property: IC50

Below are worked cases with known answers.
COc1ccc(CCNC(=O)c2ccc(N3[C@@H]4CC[C@H]3C[C@@H](NC(=O)c3cccc(OC)c3C)C4)nc2)cc1OC ... 2000 to 10000 nM
NC(=O)c1cc(Cl)c(C(=O)N[C@H]2C[C@H]3CC[C@@H](C2)N3c2ccc(C(=O)NCc3ccccc3)cn2)cc1Cl ... < 500 nM
COc1cc(CNC(=O)c2ccc(N3[C@@H]4CC[C@H]3C[C@@H](NC(=O)c3cccc(OC)c3C)C4)nc2)ccc1F ... 500 to 999 nM
Cc1cc(C(N)=O)c(NC(C(C)C)C(C)C)cc1C(=O)N[C@H]1C[C@H]2CC[C@@H](C1)N2c1ccc(C(=O)C2CC2)cn1 ... < 500 nM

Lab request: please report IC50 under test system UniProtKB P07900 for Cc1cc(OC(N)=O)ccc1C(=O)N[C@H]1C[C@H]2CC[C@@H](C1)N2c1ccc(C(=O)NCc2ccccc2)cn1
2000 to 10000 nM

Now consider NC(=O)c1ccc(N2[C@@H]3CC[C@H]2C[C@@H](NC(=O)c2ccc(C(N)=O)c(OCCN4CCOCC4)c2)C3)nc1 .
1000 to 2000 nM

Now consider Cc1cnc(CNC(=O)c2ccc(N3[C@@H]4CC[C@H]3C[C@@H](NC(=O)c3ccc(CO)cc3)C4)nc2)cn1 .
< 500 nM

* * *

Target: HSP90 (Homo sapiens)
Reported Property: IC50

// IC50 lookup, key: NC(=O)c1cc(Br)c(C(=O)N[C@H]2C[C@H]3CC[C@@H](C2)N3c2ccc(C(=O)C3CC3)cn2)cc1NC1CCC1
< 500 nM

Now consider COc1cccc(C(=O)N[C@H]2C[C@H]3CC[C@@H](C2)N3c2ccc(C(=O)NCCCN(C)C)cn2)c1C .
500 to 999 nM

Now consider CCN(CC)CCOc1cccc(CNC(=O)c2ccc(N3[C@@H]4CC[C@H]3C[C@@H](NC(=O)c3cccc(OC)c3C)C4)nc2)c1 .
< 500 nM

Now consider Cc1cc(C(N)=O)c(NC(C)(C)C)cc1C(=O)N[C@H]1C[C@H]2CC[C@@H](C1)N2c1ccc(C(=O)C2CC2)cn1 .
< 500 nM

Now consider COc1cccc(C(=O)N[C@H]2C[C@H]3CC[C@@H](C2)N3c2ccc(C(=O)NCCCOC(C)C)cn2)c1C .
1000 to 2000 nM

Now consider COc1cccc(C(=O)N[C@H]2C[C@H]3CC[C@@H](C2)N3c2ccc(C(=O)NCCSC)cn2)c1C .
1000 to 2000 nM

Now consider NC(=O)c1ccc(C(=O)N[C@H]2C[C@H]3CC[C@@H](C2)N3c2ccc(C(=O)C3CC3)cn2)cc1NCC1CC1 .
< 500 nM

* * *

In what follows, each item is paired with its IC50 for HSP90 (Homo sapiens).

COc1cccc(C(=O)N[C@H]2C[C@H]3CC[C@@H](C2)N3c2ccc(C(=O)NCc3ccccc3N3CCN(C)CC3)cn2)c1C ... 1000 to 2000 nM
CC(=O)c1ccc(N2C3CCC2CC(NC(=O)c2ccc(C(N)=O)c(NCCN)c2)C3)nc1 (centres unmarked) ... < 500 nM
NC(=O)c1ccc(N2[C@@H]3CC[C@H]2C[C@@H](NC(=O)c2ccc(CO)cc2)C3)nc1 ... < 500 nM
CCCCNc1cc(C(=O)N[C@H]2C[C@H]3CC[C@@H](C2)N3c2ccc(C(C)=O)cn2)ccc1C(N)=O ... < 500 nM

// IC50 lookup, key: COc1cccc(C(=O)N[C@H]2C[C@H]3CC[C@@H](C2)N3c2ccc(C(=O)Nc3cccc(C)c3)cn2)c1C
2000 to 10000 nM

Now consider Cc1cc(C(N)=O)c(NC(C)C2CC2)cc1C(=O)N[C@H]1C[C@H]2CC[C@@H](C1)N2c1ccc(C(=O)C2CC2)cn1 (some centres unmarked) .
< 500 nM

Now consider NC(=O)c1ccc(C(=O)NC2CC3CCC(C2)N3c2ccc(C(=O)C3CC3)cn2)cc1N[C@H]1CC[C@H](N2CCCCC2)CC1 (some centres unmarked) .
< 500 nM

Now consider CCC(C)Nc1cc(C(=O)N[C@H]2C[C@H]3CC[C@@H](C2)N3c2ccc(C(=O)C3CC3)cn2)ccc1C(N)=O (some centres unmarked) .
< 500 nM

* * *

Target: HSP90 (Homo sapiens)
Parameter IC50: see the listing below.

C[C@H](NC(=O)c1ccc(N2[C@@H]3CC[C@H]2C[C@@H](NC(=O)c2ccc(C(N)=O)c(NC4CCN(S(C)(=O)=O)CC4)c2)C3)nc1)c1ccc(N2CCN(C)CC2)cc1 ... < 500 nM

// IC50 lookup, key: Cc1cc(N)ccc1C(=O)N[C@H]1C[C@H]2CC[C@@H](C1)N2c1ccc(C(N)=O)cn1
2000 to 10000 nM

Now consider COc1cccc(C(=O)N[C@H]2C[C@H]3CC[C@@H](C2)N3c2ccc(C(=O)NC3CCNCC3)cn2)c1C .
< 500 nM

Now consider Cc1cc(C(N)=O)c(NC2CCC2)cc1C(=O)N[C@H]1C[C@H]2CC[C@@H](C1)N2c1ccc(C(=O)C2CC2)cn1 .
< 500 nM

* * *

In what follows, each item is paired with its IC50 for HSP90 (Homo sapiens, UniProt P07900).

Below are worked cases with known answers.
Cc1cc(C(N)=O)cc(C)c1C(=O)N[C@H]1C[C@H]2CC[C@@H](C1)N2c1ccc(C(=O)NCc2ccccc2)cn1 ... 500 to 999 nM
COc1c(C(N)=O)ccc(C(=O)NC2CC3CCC(C2)N3c2ccc(C(=O)N[C@@H](C)c3ccc(N4CCN(C)CC4)cc3)cn2)c1C (stereo partly shown) ... < 500 nM
Cc1cc(C(=O)NC2CC3CCC(C2)N3c2ccc(C(=O)N[C@@H]3CCCN(C(C)C)C3)cn2)c(C)cc1C(N)=O (stereo partly shown) ... < 500 nM

Attention now shifts to the item below.
Lab request: please report IC50 under test system HSP90 (Homo sapiens, UniProt P07900) for CC(=O)c1ccc(N2[C@@H]3CC[C@H]2C[C@@H](NC(=O)c2ccc(C(N)=O)c(NCC(F)(F)F)c2)C3)nc1
< 500 nM

* * *

Biological target: HSP90 (Homo sapiens, UniProt P07900)
pIC50: −log10 of the molar value.
Reported Property: pIC50

COc1cccc(C(=O)N[C@H]2C[C@H]3CC[C@@H](C2)N3c2ccc(C(=O)NCC(C)C)cn2)c1C ... 5.70 to 6.00
CCCC(CCC)Nc1cc(C(=O)N[C@H]2C[C@H]3CC[C@@H](C2)N3c2ccc(C(C)=O)cn2)ccc1C(N)=O ... > 6.30
Cc1cc(C(=O)N[C@H]2C[C@H]3CC[C@@H](C2)N3c2ccc(C(=O)NC3CCN(C)CC3)cn2)c(C)cc1C(N)=O ... 6.00 to 6.30
COc1cccc(C(=O)NC2CC3CCC(C2)N3c2ccc(C(=O)N[C@H]3CCN(Cc4ccccc4)C3)cn2)c1C (stereo partly drawn) ... 6.00 to 6.30
CC(=O)c1ccc(N2[C@@H]3CC[C@H]2C[C@@H](NC(=O)c2ccc(C(N)=O)c(NCC(C)(C)C)c2)C3)nc1 ... > 6.30
COc1cccc(C(=O)N[C@H]2C[C@H]3CC[C@@H](C2)N3c2ccc(C(=O)NCc3c(F)ccc(F)c3F)cn2)c1C ... 6.00 to 6.30
CCC(Nc1cc(C(=O)N[C@H]2C[C@H]3CC[C@@H](C2)N3c2ccc(C(=O)C3CC3)cn2)c(C)cc1C(N)=O)C1CC1 (stereo partly drawn) ... > 6.30
COc1cccc(C(=O)N[C@H]2C[C@H]3CC[C@@H](C2)N3c2ccc(C(=O)NCCN(C)C)cn2)c1C ... 5.70 to 6.00

Lab request: please report pIC50 under test system HSP90 (Homo sapiens, UniProt P07900) for Cc1c(O)cccc1C(=O)NC1CC2CCC(C1)N2c1ccc(C(=O)N[C@@H](C)c2ccc(N3CCN(C)CC3)cc2)cn1 (stereo partly drawn)
> 6.30

Now consider NC(=O)c1ccc(C(=O)N[C@H]2C[C@H]3CC[C@@H](C2)N3c2ccc(C(=O)C(F)(F)F)cn2)cc1NCC1CC1 .
5.00 to 5.70

Now consider COc1cccc(C(=O)NC2CC3CCC(C2)N3c2ccc(C(=O)NC3CCN(c4ccccc4)CC3)cn2)c1C (stereo not drawn) .
5.00 to 5.70

Now consider COc1cc(C(=O)NC2CC3CCC(C2)N3c2ccc(C(=O)N[C@@H](C)c3ccc(N4CCN(C)CC4)cc3)cn2)ccc1C(N)=O (stereo partly drawn) .
> 6.30

* * *

Target: HSP90 (Homo sapiens)
Test: HSP90 inhibition (HSP90 IC50)
Assay type: biochemical
pIC50: −log10 of the molar value.
Reported Property: pIC50

Below are worked cases with known answers.
CC(=O)c1ccc(N2[C@@H]3CC[C@H]2C[C@@H](NC(=O)c2ccc(C(N)=O)c(Nc4cccc(OCCN(C)C)c4)c2)C3)nc1 ... > 6.30
COc1cccc(C(=O)N[C@H]2C[C@H]3CC[C@@H](C2)N3c2ccc(C(=O)NCc3cc(F)c(F)cc3F)cn2)c1C ... 6.00 to 6.30

// pIC50 lookup, key: CS(=O)(=O)CCNc1cc(C(=O)N[C@H]2C[C@H]3CC[C@@H](C2)N3c2ccc(C(=O)NC3CCCC3)cn2)ccc1C(N)=O
> 6.30

Now consider CC(=O)c1ccc(N2[C@@H]3CC[C@H]2C[C@@H](NC(=O)c2ccc(C(N)=O)c(NC(C)C(C)(C)C)c2)C3)nc1 (stereo partly drawn) .
> 6.30

Now consider CC(=O)c1ccc(N2[C@@H]3CC[C@H]2C[C@@H](NC(=O)c2cc(NC4CCC(C(F)(F)F)CC4)c(C(N)=O)cc2C)C3)nc1 (stereo partly drawn) .
> 6.30

Now consider COC(=O)[C@@H](NC(=O)c1ccc(N2C3CCC2CC(NC(=O)c2cccc(OC)c2C)C3)nc1)c1ccc(OC)cc1 (stereo partly drawn) .
5.70 to 6.00

Now consider COc1cccc(C(=O)N[C@H]2C[C@H]3CC[C@@H](C2)N3c2ccc(C(=O)NCc3cccc(C)c3)cn2)c1C .
5.00 to 5.70

Now consider O=C(NCc1ccccc1)c1ccc(N2[C@@H]3CC[C@H]2C[C@@H](NC(=O)c2ccc(CO)cc2)C3)nc1 .
> 6.30

Now consider CN1CCC(CCC(=O)c2ccc(N3[C@@H]4CC[C@H]3C[C@@H](NC(=O)c3ccc(C(N)=O)c(NCC5CC5)c3)C4)nc2)CC1 .
> 6.30

Now consider COc1cc(Nc2cc(C(=O)NC3CC4CCC(C3)N4c3ccc(C(=O)N[C@@H](C)c4ccc(N5CCN(C)CC5)cc4)cn3)ccc2C(N)=O)cc(OC)c1OC (stereo partly drawn) .
> 6.30

Now consider COc1cccc(C(=O)N[C@H]2C[C@H]3CC[C@@H](C2)N3c2ccc(C(=O)NC3CCCC3)cn2)c1C .
6.00 to 6.30

Now consider COc1cccc(C(=O)N[C@H]2C[C@H]3CC[C@@H](C2)N3c2ccc(C(=O)Nc3ccc(OCCN(C)C)cc3)cn2)c1C .
6.00 to 6.30

Now consider CCCNc1cc(C(=O)N[C@H]2C[C@H]3CC[C@@H](C2)N3c2ccc(C(C)=O)cn2)ccc1C(N)=O .
> 6.30

Now consider NC(=O)c1ccc(C(=O)N[C@H]2C[C@H]3CC[C@@H](C2)N3c2ccc(C(=O)CCN3CCN(c4ccccc4)CC3)cn2)cc1NCC1CC1 .
6.00 to 6.30

Now consider Cc1cc(C(=O)NC2CC3CCC(C2)N3c2ccc(C(=O)N[C@@H]3CCN(C)C3)cn2)c(C)cc1C(N)=O (stereo partly drawn) .
6.00 to 6.30
